# target_system: T1, Aβ pathology (plaques) in human AD brain tissue (human, UniProt P05067 672-713)
# T1 construct: Native tissue deposits, heterogeneous; also called tissue Aβ pathology; Aβ plaques
# T1 sequence (P05067 672-713): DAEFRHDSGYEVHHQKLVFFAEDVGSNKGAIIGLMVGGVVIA
# assay_info: IHC on frozen human AD brain sections, brain AD 15-19; % stained area against antibody concentration (0.03-9 µg/ml)
property_name: Area Under Curve
Number only, please.

# input # lookup: Area Under Curve of h2831 (antibody, V domains shown, Humanized IgG mAb; also called PB-0575) VH: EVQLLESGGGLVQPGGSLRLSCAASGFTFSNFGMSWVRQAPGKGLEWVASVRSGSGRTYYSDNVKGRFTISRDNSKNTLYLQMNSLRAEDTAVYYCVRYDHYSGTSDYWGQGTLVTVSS VL: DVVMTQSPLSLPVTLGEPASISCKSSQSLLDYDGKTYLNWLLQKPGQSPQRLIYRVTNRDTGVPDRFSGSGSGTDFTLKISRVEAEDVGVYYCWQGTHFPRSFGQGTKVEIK
# output 49.7
